assay-system: GST-fused lck SH2 domain (Homo sapiens, UniProt P06239)
Sequence (P06239 127-224 limits assumed): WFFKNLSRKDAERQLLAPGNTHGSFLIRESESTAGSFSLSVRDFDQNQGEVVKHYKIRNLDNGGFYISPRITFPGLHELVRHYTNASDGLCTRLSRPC
pIC50: −log10 of the molar value.

compound | assay-system | pIC50
CCCOC(=O)[C@@H](Cc1ccc(O)c(O)c1)OC(=O)/C=C/c1ccc(O)c(O)c1 | GST-fused lck SH2 domain (Homo sapiens, UniProt P06239) | 4.60 to 5.00
NC(=O)[C@@H](Cc1ccc(O)c(O)c1)NC(=O)/C=C/c1ccc(O)c(O)c1 | GST-fused lck SH2 domain (Homo sapiens, UniProt P06239) | > 5.00
CCCOC(=O)[C@H](Cc1ccc(O)c(O)c1)NC(=O)/C=C/c1ccc(O)c(O)c1 | GST-fused lck SH2 domain (Homo sapiens, UniProt P06239) | 4.60 to 5.00
CCOC(=O)[C@H](Cc1ccc(O)c(O)c1)NC(=O)/C=C/c1ccc(O)c(O)c1 | GST-fused lck SH2 domain (Homo sapiens, UniProt P06239) | 4.60 to 5.00
COC(=O)[C@H](Cc1ccc(O)c(O)c1)N(C)C(=O)/C=C/c1ccc(O)c(O)c1 | GST-fused lck SH2 domain (Homo sapiens, UniProt P06239) | 4.30 to 4.60
CC(C)(C)OC(=O)[C@@H](Cc1ccc(O)c(O)c1)NC(=S)/C=C/c1ccc(O)c(O)c1 | GST-fused lck SH2 domain (Homo sapiens, UniProt P06239) | 4.30 to 4.60
COC(=O)[C@@H](Cc1ccc(O)c(O)c1)NC(=O)CCc1ccc(O)c(O)c1 | GST-fused lck SH2 domain (Homo sapiens, UniProt P06239) | 4.60 to 5.00
CCCOC(=O)[C@H](Cc1ccc(O)c(O)c1)NC(=S)/C=C/c1ccc(O)c(O)c1 | GST-fused lck SH2 domain (Homo sapiens, UniProt P06239) | 4.60 to 5.00
CN(C(=O)/C=C/c1ccc(O)c(O)c1)[C@@H](Cc1ccc(O)c(O)c1)C(N)=O | GST-fused lck SH2 domain (Homo sapiens, UniProt P06239) | 4.60 to 5.00
O=C(O)[C@H](Cc1ccc(O)c(O)c1)NC(=S)/C=C/c1ccc(O)c(O)c1 | GST-fused lck SH2 domain (Homo sapiens, UniProt P06239) | 4.30 to 4.60
COC(=O)C(Cc1ccc(O)c(O)c1)NC(=O)Cc1ccc(O)c(O)c1 (stereo not drawn) | GST-fused lck SH2 domain (Homo sapiens, UniProt P06239) | > 5.00
CCCOC(=O)[C@H](Cc1ccc(O)c(O)c1)N(C)C(=O)/C=C/c1ccc(O)c(O)c1 | GST-fused lck SH2 domain (Homo sapiens, UniProt P06239) | 4.60 to 5.00
CC(C)(C)OC(=O)[C@@H](Cc1ccc(O)c(O)c1)OC(=O)/C=C/c1ccc(O)c(O)c1 | GST-fused lck SH2 domain (Homo sapiens, UniProt P06239) | 4.30 to 4.60
NC(=O)[C@H](Cc1ccc(O)c(O)c1)NC(=S)/C=C/c1ccc(O)c(O)c1 | GST-fused lck SH2 domain (Homo sapiens, UniProt P06239) | 4.60 to 5.00
NC(=O)[C@@H](Cc1ccc(O)c(O)c1)OC(=O)/C=C/c1ccc(O)c(O)c1 | GST-fused lck SH2 domain (Homo sapiens, UniProt P06239) | 4.30 to 4.60
